Numbers sourced from paper PMC3430621.

assay: Stability of the analytes in rat plasma samples (freeze-thaw, short-term, long-term, autosampler); type: in vitro ADME; conditions: concentration 100 (µg/mL), room temperature 6 h, n = 3
MEASURED PROPERTY: Stability (%) Short-term stability

COMPOUND	Stability (%) Short-term stability
CC(=O)O[C@H]1[C@H](O[C@H]2CC[C@]34C[C@]35CC[C@]3(C)[C@@H]([C@@]6(C)CC[C@@H](C(C)(C)O)O6)[C@@H](O)C[C@@]3(C)[C@@H]5C[C@H](O[C@@H]3O[C@H](CO)[C@@H](O)[C@H](O)[C@H]3O)[C@H]4C2(C)C)OC[C@@H](O)[C@@H]1O [Astragaloside II, astragaloside II]	−6.8

[A] COc1ccc(-c2coc3cc(O[C@@H]4O[C@H](CO)[C@@H](O)[C@H](O)[C@H]4O)ccc3c2=O)cc1 [Ononin, ononin]
[B] COc1ccc(-c2coc3cc(O[C@@H]4O[C@H](CO)[C@@H](O)[C@H](O)[C@H]4O)ccc3c2=O)cc1O [Calycosin-7-O-β-D-glucoside, calycosin-7-O-β-D-glucoside]
[C] CC(=O)OC1C(O)COC(OC2CCC34CC35CCC3(C)C(C6(C)CCC(C(C)(C)O)O6)C(O)CC3(C)C5CC(OC3OC(CO)C(O)C(O)C3O)C4C2(C)C)C1OC(C)=O (centres unmarked) [Astragaloside I, astragaloside I]
[D] COc1ccc(-c2coc3cc(O)ccc3c2=O)cc1O [Calycosin, calycosin]
In: Order the 4 compounds from highest to lowest Stability (%) Short-term stability. Please, when replying, give the labels in the order that was requested.
Out: D, A, B, C
(D: 14%, A: 6.7%, B: −0.1%, C: −6.4%)
